# MEASURED TARGET: recombinant human AMPK complex 7 (containing α2β1γ1) (Homo sapiens (Human), UniProt P54646+Q9Y478)
# Sequence (P54646 whole entry): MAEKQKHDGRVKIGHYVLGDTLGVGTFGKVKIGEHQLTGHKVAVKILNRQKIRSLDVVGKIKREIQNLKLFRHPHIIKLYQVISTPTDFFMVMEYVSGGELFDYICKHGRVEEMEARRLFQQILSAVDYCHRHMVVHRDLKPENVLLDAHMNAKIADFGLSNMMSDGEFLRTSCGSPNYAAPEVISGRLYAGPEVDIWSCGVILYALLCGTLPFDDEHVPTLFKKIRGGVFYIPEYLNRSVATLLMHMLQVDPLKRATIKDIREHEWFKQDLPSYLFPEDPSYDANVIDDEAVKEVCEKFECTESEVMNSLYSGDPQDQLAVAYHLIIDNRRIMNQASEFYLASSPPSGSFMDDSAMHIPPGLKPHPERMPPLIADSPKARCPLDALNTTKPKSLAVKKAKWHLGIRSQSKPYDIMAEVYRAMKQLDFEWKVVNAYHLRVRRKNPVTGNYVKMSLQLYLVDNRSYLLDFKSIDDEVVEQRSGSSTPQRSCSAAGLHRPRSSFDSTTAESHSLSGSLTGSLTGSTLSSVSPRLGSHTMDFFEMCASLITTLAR
# Sequence (Q9Y478 whole entry): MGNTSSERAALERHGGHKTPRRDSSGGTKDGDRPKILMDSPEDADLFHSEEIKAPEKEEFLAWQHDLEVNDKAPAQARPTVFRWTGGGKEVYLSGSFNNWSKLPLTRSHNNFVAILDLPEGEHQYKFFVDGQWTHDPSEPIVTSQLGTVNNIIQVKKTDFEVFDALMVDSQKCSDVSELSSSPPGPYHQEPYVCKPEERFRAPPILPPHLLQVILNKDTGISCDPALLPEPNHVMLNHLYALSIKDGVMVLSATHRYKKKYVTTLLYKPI
# Sequence (P54619 whole entry partner): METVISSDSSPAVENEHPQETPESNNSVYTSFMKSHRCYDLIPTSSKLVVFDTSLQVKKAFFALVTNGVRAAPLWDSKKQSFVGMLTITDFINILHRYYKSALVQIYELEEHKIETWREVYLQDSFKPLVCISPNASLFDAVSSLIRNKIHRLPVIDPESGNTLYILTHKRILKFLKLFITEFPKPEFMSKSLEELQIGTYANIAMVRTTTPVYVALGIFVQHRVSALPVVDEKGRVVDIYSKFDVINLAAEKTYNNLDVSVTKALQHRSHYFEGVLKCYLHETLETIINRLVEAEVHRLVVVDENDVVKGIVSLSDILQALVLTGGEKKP
# ASSAY PROTOCOL: In vitro AMPK activation assay (AMPKSAMSF), complex 7
# Assay type: biochemical
# CONDITIONS USED: recombinant human AMPK complex 7 (α2β1γ1)
EXPERIMENTAL READOUT: EC50 (nM)
Give bare numbers, in nM.

For every item in the list below, what is its measured EC50?
1. OC[C@H]1OC[C@H](Oc2nc3cc(-c4ccc(-c5ccc(-c6nnn[nH]6)cc5)cc4)c(Cl)cc3[nH]2)C[C@@H]1O
2. OC[C@H]1OC[C@H](Oc2nc3cc(-c4ccc(-c5ccc(-n6cncn6)cc5)cc4)c(Cl)cc3[nH]2)C[C@@H]1O
3. O=S(=O)(c1ccc(-c2ccc(-c3c(F)cc4[nH]c(O[C@H]5CO[C@H](CO)[C@@H](O)C5)nc4c3F)cc2)cc1)C1CCNCC1
4. OC[C@H]1OC[C@H](Oc2nc3cc(-c4ccc(-c5ccc(C6CNCCO6)cc5)cc4)c(Cl)cc3[nH]2)C[C@@H]1O (stereo partly shown)

Solution:
[18, 9, 8, 12]
